Would you mind telling me the reported pIC50 of each entry?
- study.system: PI3K-delta (Homo sapiens, UniProt O00329)
- Construct: Millipore 14-604
- Sequence (O00329 whole entry): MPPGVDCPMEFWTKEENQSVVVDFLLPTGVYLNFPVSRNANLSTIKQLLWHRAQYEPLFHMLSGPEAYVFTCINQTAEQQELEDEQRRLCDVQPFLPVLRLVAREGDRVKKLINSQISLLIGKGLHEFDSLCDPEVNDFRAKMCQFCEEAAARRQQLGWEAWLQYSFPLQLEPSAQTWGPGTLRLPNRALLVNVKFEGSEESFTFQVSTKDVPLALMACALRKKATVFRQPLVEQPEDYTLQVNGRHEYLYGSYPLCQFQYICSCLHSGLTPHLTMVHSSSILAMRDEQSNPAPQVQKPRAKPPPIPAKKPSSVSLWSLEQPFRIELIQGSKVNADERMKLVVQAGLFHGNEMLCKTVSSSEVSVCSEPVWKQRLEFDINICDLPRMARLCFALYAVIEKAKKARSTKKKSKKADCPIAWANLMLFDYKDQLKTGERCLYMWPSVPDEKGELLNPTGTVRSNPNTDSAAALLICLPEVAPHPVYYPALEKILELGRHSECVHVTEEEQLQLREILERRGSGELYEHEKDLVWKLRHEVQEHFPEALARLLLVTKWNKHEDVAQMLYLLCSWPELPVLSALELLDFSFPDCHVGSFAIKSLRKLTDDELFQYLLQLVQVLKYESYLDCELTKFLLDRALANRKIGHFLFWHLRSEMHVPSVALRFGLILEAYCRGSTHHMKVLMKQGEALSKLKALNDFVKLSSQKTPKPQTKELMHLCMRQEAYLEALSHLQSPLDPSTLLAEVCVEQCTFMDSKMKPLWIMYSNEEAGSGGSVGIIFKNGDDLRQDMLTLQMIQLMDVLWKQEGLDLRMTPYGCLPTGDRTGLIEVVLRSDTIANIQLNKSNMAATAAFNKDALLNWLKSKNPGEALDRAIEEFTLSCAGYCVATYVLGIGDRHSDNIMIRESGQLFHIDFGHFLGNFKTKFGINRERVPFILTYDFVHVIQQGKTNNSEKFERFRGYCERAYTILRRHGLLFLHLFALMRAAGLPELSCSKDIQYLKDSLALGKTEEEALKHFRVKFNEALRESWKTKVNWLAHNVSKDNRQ
- Sequence (P27986 whole entry partner): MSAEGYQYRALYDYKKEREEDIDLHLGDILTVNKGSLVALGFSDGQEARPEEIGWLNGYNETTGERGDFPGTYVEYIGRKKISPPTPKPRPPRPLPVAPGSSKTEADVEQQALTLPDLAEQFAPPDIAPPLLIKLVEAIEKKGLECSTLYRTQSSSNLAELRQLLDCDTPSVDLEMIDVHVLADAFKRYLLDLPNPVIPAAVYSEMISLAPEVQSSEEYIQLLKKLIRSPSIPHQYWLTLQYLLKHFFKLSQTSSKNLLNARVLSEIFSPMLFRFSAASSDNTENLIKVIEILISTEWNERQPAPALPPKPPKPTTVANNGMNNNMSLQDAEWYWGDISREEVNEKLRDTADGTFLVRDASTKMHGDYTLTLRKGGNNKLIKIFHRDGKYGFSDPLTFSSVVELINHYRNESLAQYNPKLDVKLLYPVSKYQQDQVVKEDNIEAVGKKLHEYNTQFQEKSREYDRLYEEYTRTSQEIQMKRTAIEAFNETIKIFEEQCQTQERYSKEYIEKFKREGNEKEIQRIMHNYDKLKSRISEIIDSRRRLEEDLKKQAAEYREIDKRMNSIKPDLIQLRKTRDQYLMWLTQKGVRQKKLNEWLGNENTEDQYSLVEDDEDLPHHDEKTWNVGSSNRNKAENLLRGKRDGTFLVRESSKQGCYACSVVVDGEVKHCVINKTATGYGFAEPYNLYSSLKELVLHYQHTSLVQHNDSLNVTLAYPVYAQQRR
- assay.method.text: HTRF PI3K biochemical assay, delta isoform
- condition.notes: form screened (neutral or TFA salt) given, read-out: PI3Kdelta IC50
Numbers only, as −log10 of the molar value.

See these solved cases before continuing.
Q) API: value(readout= pIC50, system= PI3K-delta (Homo sapiens, UniProt O00329), query= CCn1c(-c2cnc(C)nc2)nc2c(N[C@H]3C[C@H](CO)N(C(=O)OC(C)(C)C)C3)ncnc21 )
A) 7.92

Q) API: value(readout= pIC50, system= PI3K-delta (Homo sapiens, UniProt O00329), query= CCn1c(C2CC2)nc2c(N[C@H]3CCN(C(=O)C4CC4)C3)ncnc21 )
A) 6.92

Q) API: value(readout= pIC50, system= PI3K-delta (Homo sapiens, UniProt O00329), query= CCC(C)OC(=O)N1CC[C@H](Nc2ncnc3c2nc(-c2cnc(C)nc2)n3CC)C1 (mixture of isomers) )
A) 8.46

Q) API: value(readout= pIC50, system= PI3K-delta (Homo sapiens, UniProt O00329), query= CCn1c(C(=O)Nc2cccnc2)nc2c(N[C@H]3CCN(C(=O)C4CC4)C3)ncnc21 )
A) 7.77

Q) API: value(readout= pIC50, system= PI3K-delta (Homo sapiens, UniProt O00329), query= CCn1c(C(F)F)nc2c(N[C@H]3CCN(C(=O)C4CC4)C3)ncnc21 )
A) 7.66

Please look at the items below and tell me pIC50 for each one, in order.
1. CCn1c(-c2cnc(C)nc2)nc2c(N[C@H]3CN[C@@H](C(=O)N(C)C4CC4)C3)ncnc21
2. CCn1c(-c2cnc(C)nc2)nc2c(N[C@H]3CCN(C(=O)OC4CCS(=O)(=O)C4)C3)ncnc21 (mixture of isomers)
3. CCn1c(-c2cnc(C)nc2)nc2c(N[C@H]3C[C@H](C(=O)OC)N(C(=O)OC(C)(C)C)C3)ncnc21
4. CCn1c(-c2cnc(C)nc2)nc2c(N[C@H]3C[C@H](C(=O)NC(C)C)N(C(=O)C4CC4)C3)ncnc21
5. CCn1c(-c2cnc(C)nc2)nc2c(N[C@H]3CCN(C(=O)c4cc(C)on4)C3)ncnc21

A)
1. 7.54
2. 8.34
3. 8.06
4. 7.82
5. 8.13

Please look at the items below and tell me pIC50 for each one, in order.
1. CCn1c(-c2cnc(C)nc2)nc2c(N[C@H]3CCN(C(=O)NC4CCCCC4)C3)ncnc21
2. CCn1c(-c2cnc(C)nc2)nc2c(NC3CN(C(=O)C4CC4)CC3(C)C)ncnc21 (racemic)
3. CCn1c(-c2cnc(C)nc2)nc2c(N[C@H]3CCN(C(=O)C4CCCO4)C3)ncnc21 (single isomer, unassigned)
4. CCn1c(C(=O)N[C@H]2CC[C@H](O)CC2)nc2c(N[C@H]3CCN(C(=O)C4CC4)C3)ncnc21
5. CCC(=O)N1CC[C@H](Nc2ncnc3c2nc(-c2cnc(C)nc2)n3C)C1
6. CCn1c(-c2cnc(C)nc2)nc2c(N[C@H]3CCN(C(=O)C4CCC(=O)N4)C3)ncnc21 (mixture of isomers)

A)
1. 7.80
2. 8.35
3. 8.51
4. 7.72
5. 8.37
6. 8.17

Please look at the items below and tell me pIC50 for each one, in order.
1. CCn1c(-c2cnc(C)nc2)nc2c(N[C@H]3CCN(C(=O)c4nc(C)oc4C)C3)ncnc21
2. CCC(=O)N1CC[C@H](Nc2ncnc3c2nc(C(F)(F)F)n3CC)C1
3. CCC(=O)N1CC[C@H](Nc2ncnc3c2nc(-c2ccc(C(F)(F)F)nc2)n3C)C1
4. CCn1c(-c2cnc(C)nc2)nc2c(N[C@H]3CCN(C(=O)[C@H]4CC[C@@H](O)CC4)C3)ncnc21

A)
1: 8.68; 2: 7.85; 3: 7.96; 4: 8.55

The origin of these recorded values is patent US9938281B2.
